We begin with a simple list: items and their reported NOAEL.
- testDescription: Effect on respiration, blood pressure, heart rate and electrocardiogram
- Assay type: in vivo, Beagle dogs
- conditionContext: dog, in vivo, iv; injected into brachial veins, anesthetized Beagle dogs; read-out: maximum dosage not effected on respiration, blood pressure, heart rate and electrocardiogram
readoutName: NOAEL

> print(dat)
                                   compound  readoutname  experimentalvalue
1  O=NN(CCCl)C(=O)NC[C@H]1OC(O)[C@H](O)[C@@H](O)[C@@H]1O (some centres unmarked) [Example 6DCNU]        NOAEL           70 mg/kg
2  O=NN(CCCl)C(=O)N[C@H]1C(O)O[C@H](CO)[C@@H](O)[C@@H]1O (some centres unmarked) [DCNU]        NOAEL           20 mg/kg
3  O=NN(CCCl)C(=O)N[C@@H]1O[C@H](CO)[C@@H](O)[C@H](O)[C@H]1O [GANU]        NOAEL           10 mg/kg
4  CO[C@H]1O[C@H](CNC(=O)N(CCCl)N=O)[C@@H](O)[C@H](O)[C@H]1O [Example 6MCαG]        NOAEL           50 mg/kg
5  CO[C@H]1O[C@H](CO)[C@@H](O)[C@H](O)[C@H]1NC(=O)N(CCCl)N=O [Example 2MCαG]        NOAEL           30 mg/kg

====

- testDescription: Diabetogenic activity (blood glucose concentration after intravenous administration)
- Type: in vivo, male Wister rats
- conditionContext: 60 mg/kg i.v., 2 hr after treatment
readoutName: Blood Glucose Concentration (mg/dL)

> print(dat)
                                   compound                  readoutname  experimentalvalue
1  CO[C@H]1O[C@H](CNC(=O)N(CCCl)N=O)[C@@H](O)[C@H](O)[C@H]1O  Blood Glucose Concentration               72.5
2  O=NN(CCCl)C(=O)N[C@H]1C(O)O[C@H](CO)[C@@H](O)[C@@H]1O (some centres unmarked)  Blood Glucose Concentration               88.4
3  O=NN(CCCl)C(=O)NC[C@H]1OC(O)[C@H](O)[C@@H](O)[C@@H]1O (some centres unmarked)  Blood Glucose Concentration               74.2
4  CO[C@H]1O[C@H](CO)[C@@H](O)[C@H](O)[C@H]1NC(=O)N(CCCl)N=O  Blood Glucose Concentration               74.2
5  O=NN(CCCl)C(=O)N[C@@H]1O[C@H](CO)[C@@H](O)[C@H](O)[C@H]1O  Blood Glucose Concentration               71.2

====

- testDescription: Diabetogenic activity (blood glucose concentration after intravenous administration)
- Type: in vivo, male Wister rats
- conditionContext: 40 mg/kg i.v., 7 hr after treatment
- Protocol: 40-96 mg/kg of the test compounds were administered intravenously to starved male Wister rats weighing 240-260 g each, and the blood glucose concentrations of the test animals were estimated by the glucose exidase method [L. L. Saloman et al: Anal. Chem., 31 (1959), 453], in which test the compounds were dissolved in physiological saline solution just before administration. […]
readoutName: Blood Glucose Concentration (mg/dL)

> print(dat)
                                   molecule                  readoutname  experimentalvalue
1  O=NN(CCCl)C(=O)N[C@H]1C(O)O[C@H](CO)[C@@H](O)[C@@H]1O (some centres unmarked) [DCNU]  Blood Glucose Concentration               85.3
2  O=NN(CCCl)C(=O)N[C@@H]1O[C@H](CO)[C@@H](O)[C@H](O)[C@H]1O [GANU]  Blood Glucose Concentration               94.4
3  CO[C@H]1O[C@H](CO)[C@@H](O)[C@H](O)[C@H]1NC(=O)N(CCCl)N=O [Example 2MCαG]  Blood Glucose Concentration               72.3
4  O=NN(CCCl)C(=O)NC[C@H]1OC(O)[C@H](O)[C@@H](O)[C@@H]1O (some centres unmarked) [Example 6DCNU]  Blood Glucose Concentration               68.2
5  CO[C@H]1O[C@H](CNC(=O)N(CCCl)N=O)[C@@H](O)[C@H](O)[C@H]1O [Example 6MCαG]  Blood Glucose Concentration               71.7

====

# key: entry, value: Blood Glucose Concentration
- testDescription: Diabetogenic activity (blood glucose concentration after intravenous administration)
- Type: in vivo, male Wister rats
- conditionContext: 40 mg/kg i.v., 48 hr after treatment
readoutName: Blood Glucose Concentration (mg/dL)

> print(dat)
                                   compound                  readoutname  unitannotation  experimentalvalue
1  O=NN(CCCl)C(=O)N[C@@H]1O[C@H](CO)[C@@H](O)[C@H](O)[C@H]1O [GANU]  Blood Glucose Concentration           mg/dL              186.5
2  O=NN(CCCl)C(=O)N[C@H]1C(O)O[C@H](CO)[C@@H](O)[C@@H]1O (some centres unmarked) [DCNU]  Blood Glucose Concentration           mg/dL              229.4
3  CO[C@H]1O[C@H](CNC(=O)N(CCCl)N=O)[C@@H](O)[C@H](O)[C@H]1O [Example 6MCαG]  Blood Glucose Concentration           mg/dL               75.3
4  O=NN(CCCl)C(=O)NC[C@H]1OC(O)[C@H](O)[C@@H](O)[C@@H]1O (some centres unmarked) [Example 6DCNU]  Blood Glucose Concentration           mg/dL               73.8
5  CO[C@H]1O[C@H](CO)[C@@H](O)[C@H](O)[C@H]1NC(=O)N(CCCl)N=O [Example 2MCαG]  Blood Glucose Concentration           mg/dL               70.4

====

- testDescription: Acute toxicity (LD50)
- Assay type: in vivo, male Wister rats
- conditionContext: rat, in vivo, po, after 1 week
readoutName: log10(LD50 at 168 h) (log10 of the value in mg/kg)

> print(dat)
                                   compound  experimentalvalue
1  CO[C@H]1O[C@H](CO)[C@@H](O)[C@H](O)[C@H]1NC(=O)N(CCCl)N=O               1.69
2  O=NN(CCCl)C(=O)N[C@H]1C(O)O[C@H](CO)[C@@H](O)[C@@H]1O (some centres unmarked)               3.06
3  O=NN(CCCl)C(=O)N[C@@H]1O[C@H](CO)[C@@H](O)[C@H](O)[C@H]1O               1.32
4  CO[C@H]1O[C@H](CNC(=O)N(CCCl)N=O)[C@@H](O)[C@H](O)[C@H]1O               1.70
5  O=NN(CCCl)C(=O)NC[C@H]1OC(O)[C@H](O)[C@@H](O)[C@@H]1O (some centres unmarked)               2.12

====

# reported Blood Glucose Concentration; entries follow
- testDescription: Diabetogenic activity (blood glucose concentration after intravenous administration)
- Type: in vivo, male Wister rats
- conditionContext: 60 mg/kg i.v., 4 hr after treatment
readoutName: Blood Glucose Concentration

> print(dat)
                                   compound  experimentalvalue
1  O=NN(CCCl)C(=O)N[C@@H]1O[C@H](CO)[C@@H](O)[C@H](O)[C@H]1O         72.6 mg/dL
2  O=NN(CCCl)C(=O)NC[C@H]1OC(O)[C@H](O)[C@@H](O)[C@@H]1O (some centres unmarked)         78.3 mg/dL
3  CO[C@H]1O[C@H](CNC(=O)N(CCCl)N=O)[C@@H](O)[C@H](O)[C@H]1O         69.8 mg/dL
4  O=NN(CCCl)C(=O)N[C@H]1C(O)O[C@H](CO)[C@@H](O)[C@@H]1O (some centres unmarked)         72.4 mg/dL
5  CO[C@H]1O[C@H](CO)[C@@H](O)[C@H](O)[C@H]1NC(=O)N(CCCl)N=O         68.2 mg/dL

====

Listed here: items and their measured Blood Glucose Concentration.
- testDescription: Diabetogenic activity (blood glucose concentration after intravenous administration)
- Type: in vivo, male Wister rats
- conditionContext: 60 mg/kg i.v., 48 hr after treatment
readoutName: Blood Glucose Concentration (mg/dL)

> print(dat)
                                   compound  unitannotation  experimentalvalue
1  O=NN(CCCl)C(=O)NC[C@H]1OC(O)[C@H](O)[C@@H](O)[C@@H]1O (some centres unmarked)           mg/dL               79.4
2  CO[C@H]1O[C@H](CNC(=O)N(CCCl)N=O)[C@@H](O)[C@H](O)[C@H]1O           mg/dL               70.8
3  O=NN(CCCl)C(=O)N[C@@H]1O[C@H](CO)[C@@H](O)[C@H](O)[C@H]1O           mg/dL              189.8
4  CO[C@H]1O[C@H](CO)[C@@H](O)[C@H](O)[C@H]1NC(=O)N(CCCl)N=O           mg/dL               70.8
5  O=NN(CCCl)C(=O)N[C@H]1C(O)O[C@H](CO)[C@@H](O)[C@@H]1O (some centres unmarked)           mg/dL              242.3
